# ASSAYED_TARGET: UniProt P51449
# Sequence (P51449 whole entry): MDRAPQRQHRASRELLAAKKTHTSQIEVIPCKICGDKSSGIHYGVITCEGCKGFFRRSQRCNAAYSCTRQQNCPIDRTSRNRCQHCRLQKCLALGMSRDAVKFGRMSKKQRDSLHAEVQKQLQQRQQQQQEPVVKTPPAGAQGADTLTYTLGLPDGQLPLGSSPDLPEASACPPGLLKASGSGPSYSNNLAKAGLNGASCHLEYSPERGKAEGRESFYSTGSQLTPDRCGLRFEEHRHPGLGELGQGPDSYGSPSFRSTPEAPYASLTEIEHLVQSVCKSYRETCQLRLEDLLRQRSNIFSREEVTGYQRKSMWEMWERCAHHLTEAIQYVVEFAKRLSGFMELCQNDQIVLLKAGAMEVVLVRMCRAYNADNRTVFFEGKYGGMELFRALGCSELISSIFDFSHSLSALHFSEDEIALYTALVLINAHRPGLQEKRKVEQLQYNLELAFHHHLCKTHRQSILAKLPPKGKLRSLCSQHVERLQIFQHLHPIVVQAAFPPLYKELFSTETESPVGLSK
ASSAY_READOUT: pKi
Entry type: numeric. Quantity: pKi, the -log10 of concentration in molar units.

Sample CCS(=O)(=O)c1ccc(CC(=O)Nc2cnc3c(c2)CN(C[C@H]2CC[C@H](C(F)(F)F)CC2)[C@H]3C(C)C)nc1 ; pKi observed: 8.43
